- testedSystem: PD-1/PD-L1 interaction (Homo sapiens)
- Construct: Tag1 (undisclosed kit tag)
- Sequence (Q9NZQ7 19-238 limits assumed): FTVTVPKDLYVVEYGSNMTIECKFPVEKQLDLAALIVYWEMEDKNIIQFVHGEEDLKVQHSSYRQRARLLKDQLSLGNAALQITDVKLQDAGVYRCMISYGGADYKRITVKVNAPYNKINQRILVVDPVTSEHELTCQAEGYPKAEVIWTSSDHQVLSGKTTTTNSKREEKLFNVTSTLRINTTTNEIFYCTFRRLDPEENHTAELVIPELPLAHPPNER
- procedureText: PD-1/PD-L1 Homogenous Time-Resolved Fluorescence (HTRF) binding assay (CisBio kit)
- measurementParameters: Biochemical PD1/PD-L1 inhibition
pIC50: −log10 of the molar value.
Please provide measured pIC50 for the entries that follow.

Worked examples follow.
- molecule: "CC(=O)NCCNCc1c(OCc2cccc(C#N)c2)cc(OCc2cccc(-c3ccc(F)cc3)c2C)c2c1CCC2 [Compound 87]"
  pIC50: "6.30 to 7.00"
- molecule: "Cc1c(COc2cc(OCc3cccc(C#N)c3)c(CNC(CO)(CO)CO)c3c2CCC3)cccc1-c1ccccc1 [Compound 38]"
  pIC50: "> 7.00"
- molecule: "COc1cc(OCc2cccc(-c3ccccc3)c2C#N)c2c(c1CN1C[C@H](O)C[C@H]1C(=O)O)CCC2 [Compound 57]"
  pIC50: "> 7.00"

For every item below, please supply its pIC50.
1. COc1cc(OCc2cccc(-c3cccc(OCCCN4CCC(F)(F)C4)c3C)c2C)c2c(c1CN1C[C@H](O)C[C@H]1C(=O)O)CCC2 [Compound 33]
2. Cc1c(COc2cc(OCc3cccc(C#N)c3)c(CN3CC4(CC4)C[C@H]3C(=O)O)c3c2CCC3)cccc1-c1ccccc1 [Compound 42]
3. COc1cc(OCc2cccc(-c3ccccc3)c2C#N)c2c(c1CN(C)CCN(C)C(C)=O)CCC2 [Compound 64]
4. Cc1c(COc2ccc(CNCC(=O)O)c3c2CCC3)cccc1-c1ccccc1 [Compound 20]
5. CC(=O)NCCNCc1c(OCCCCC#N)cc(OCc2cccc(-c3ccccc3)c2C)c2c1CCC2 [Compound 79]

< 6.30
> 7.00
6.30 to 7.00
6.30 to 7.00
> 7.00

For every item below, please supply its pIC50.
1. Cc1c(COc2cc(OCCCCC#N)c(CN3CCCC[C@H]3C(N)=O)c3c2CCC3)cccc1-c1ccccc1 [Compound 80]
2. N#Cc1cncc(COc2cc(OCc3cccc(-c4ccccc4)c3C#N)c3c(c2CN2CCC[C@@H](C(=O)O)C2)CCC3)c1 [Compound 71]
3. Cc1c(COc2cc(OCC3CCCN(C)C3)c(CN3CCCC[C@H]3C(=O)O)c3c2CCC3)cccc1-c1ccccc1 (some centres unmarked) [Compound 77]
4. COc1cc(OCc2cccc(-c3ccccc3)c2C)c2c(c1CN1C[C@H](O)C[C@H]1C(=O)O)CCC2 [Compound 25]

1. < 6.30
2. > 7.00
3. > 7.00
4. > 7.00

For every item below, please supply its pIC50.
1. COc1cc(OCc2cccc(-c3ccccc3)c2C)c2c(c1CN1CCC[C@H]3C[C@]31C(=O)O)CCC2 (racemic) [Compound 45]
2. CC(=O)NCCNCc1c(OCc2cncc(C(N)=O)c2)cc(OCc2cccc(-c3ccccc3)c2C)c2c1CCC2 [Compound 94]

1. 6.30 to 7.00
2. > 7.00
